# System: PSV with methionine 184 to valine (M184V) substitution in the reverse transcriptase gene
# assayInfo: microbe, parasite or virus in culture
# Type: cell-based, HIV
# particulars: Human immunodeficiency virus 1, 72 h, read-out: M184V IC50
Assign IC50 to each entry below.
One number for each entry, in nM.

C#C[C@]1(CO)O[C@@H](n2cnc3c(N)nc(F)nc32)C[C@@H]1OC(=O)c1ccccc1 : 197
C#C[C@]1(CO)O[C@@H](n2cnc3c(N)nc(F)nc32)C[C@@H]1OC(=O)CCCCCCCCCCCCCCCCCCC : 3280
C#C[C@]1(CO)O[C@@H](n2cnc3c(N)nc(F)nc32)C[C@@H]1OC(=O)CCCCCCCCCCCCC : 7.8

Turning now to a further molecule:
**Query** Provide only the value of recorded IC50 for "C#C[C@]1(CO)O[C@@H](n2cnc3c(NC(=O)CCCCCCCCC)nc(F)nc32)C[C@@H]1OC(=O)CCCCCCCCC"
**Result** 28.6

====

# Test system: PSV with methionine 184 to valine (M184V) substitution in the reverse transcriptase gene
# assayInfo: microbe, parasite or virus in culture
# Format: cell-based, HIV
# particulars: Human immunodeficiency virus 1, 72 h, read-out: M184V IC50
assayMetric: pIC50
Give bare numbers, as −log10 of the molar value.

C#C[C@]1(CO)O[C@@H](n2cnc3c(NC(=O)CCCCCC)nc(F)nc32)C[C@@H]1OC(=O)CCCCCC : 7.36
C#C[C@]1(CO)O[C@@H](n2cnc3c(N)nc(F)nc32)C[C@@H]1OC(=O)C1CCCCC1 : 7.72
C#C[C@]1(CO)O[C@@H](n2cnc3c(N)nc(F)nc32)C[C@@H]1OC(=O)C(CCC)CCC : 6.77
C#C[C@]1(CO)O[C@@H](n2cnc3c(N)nc(F)nc32)C[C@@H]1OC(=O)C(C)(C)C : 5.89

# batch: return pIC50 for each of the 2 compounds below
1. C#C[C@]1(COC(=O)OCC)O[C@@H](n2cnc3c(N)nc(F)nc32)C[C@@H]1OC(=O)CCCCCCCCCCCCCCCCC
2. C#C[C@]1(CO)O[C@@H](n2cnc3c(N)nc(F)nc32)C[C@@H]1OC(C)=O

**Result**
[5.67, 6.27]

====

# testedOn: PSV with methionine 184 to valine (M184V) substitution in the reverse transcriptase gene
# assayInfo: microbe, parasite or virus in culture
# Type: cell-based, HIV
# particulars: U373 cells expressing human CD4 and CXCR4 or CCR5; luciferase signal after 3 days; mean IC50; read-out: M184V IC50
assayMetric: IC50 (nM)
Numbers only, in nM.

**Query** Give recorded IC50. C#C[C@]1(CO)O[C@@H](n2cnc3c(N)nc(F)nc32)C[C@@H]1O [EFdA, 4′-ethynyl-2-fluoro-2′-deoxyadenosine, reference compound]
**Result** 35.1

====

# Test system: PSV with methionine 184 to valine (M184V) substitution in the reverse transcriptase gene
# assayInfo: microbe, parasite or virus in culture
# Type: cell-based, HIV
# particulars: Human immunodeficiency virus 1, 72 h, read-out: M184V IC50
Provide the recorded pIC50 for the entries that follow.
Give bare numbers, as −log10 of the molar value.

// below: answered molecules
C#C[C@]1(CO)O[C@@H](n2cnc3c(NC(=O)OCC)nc(F)nc32)C[C@@H]1OC(=O)CCCCCCCCC [Example 8] : 6.34
C#C[C@]1(CO)O[C@@H](n2cnc3c(NC(=O)CCCCCCCCCCCCC)nc(F)nc32)C[C@@H]1OC(=O)CC(C)(C)c1c(C)cc(C)cc1OC(C)=O [Example 28] : 6.81

Could you now consider this next molecule?
**Query** Give pIC50 for this entry on PSV with methionine 184 to valine (M184V) substitution in the reverse transcriptase gene: C#C[C@]1(CO)O[C@@H](n2cnc3c(N)nc(F)nc32)C[C@@H]1OC(=O)C(CCCC)CCCCCC (stereo partly drawn) [Example 17]
**Result** 6.22

// data source = patent US20220117993A1
